Origin of the recorded values: PubChem BioAssay (NCI)

# test-details: NCI Yeast Anticancer Drug Screen. Data for the cln2 rad14 strain (AID 165);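 also: 0% = growth equal to vehicle treated cultures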
# cond: S. cerevisiae cln2 rad14 strain, at 50.0 µM, stronger effect = higher value
About 79,000 compounds went through this panel and 15% of them were active in at least one assay; those are over-represented in the sample as a whole.

| molecule | reading-unit | growth inhibition |
| --- | --- | --- |
| CCNC(=S)Nc1ccc(OCC)cc1 | % | -18.1 |
| Cc1cccc(C)c1NC(=O)Oc1ccc(Cl)cc1Cc1ccccc1 | % | 98.9 |
| CCn1c(C)[n+](CC)c2ccc(C(C)=O)cc21 | % | 8.95 |
| O=C(C/C(=N\NC(=O)C[n+]1ccccc1)C(=O)Nc1nc2ccc([N+](=O)[O-])cc2s1)CC(c1ccccc1)c1c(O)c2ccccc2oc1=O (configuration not stated) | % | 1.6 |
| O=C(/C=N\O)c1ccccc1[N+](=O)[O-] | % | -37.5 |
| O=C(O)c1cc(N=Nc2ccc([N+](=O)[O-])cc2S(=O)(=O)O)ccc1O | % | 16.1 |
| CCOC(=O)C(CNCc1ccccc1)(c1ccccc1)c1ccccc1 | % | -31.3 |
| CC1(C)CC2(C)CC1CC2O (configuration not stated) | % | 14.8 |
| Cc1ccc2nc(-c3ccc(CSC(=N)N)cc3)oc(=O)c2c1 | % | 20.9 |
| Oc1cc2nc3ccccc3nc2c2ccc(Br)cc12 | % | -44.6 |
| O=C(/C=C(\C(=O)c1cccs1)c1cccs1)c1ccc(C(=O)/C=C(\C(=O)c2cccs2)c2cccs2)cc1 | % | -25.1 |
| CCOC(=O)c1c(C#N)c2cnn(-c3ccccc3)c2n2cccc12 | % | -64.2 |
| O=C1C=C(n2ccccc2=O)CCC1 | % | -29.1 |
| O=C(NCCc1[nH]nc2c1C(=O)C=C(Nc1ccccc1)C2=O)OCc1ccccc1 | % | -21.9 |
| CCOC(=O)c1ccc(N(CC(=O)O)S(=O)(=O)c2ccc(C)cc2)s1 | % | 16.6 |
| CC1SC2(C(=O)Nc3ccccc32)N(c2ccc(O)cc2)C1=O (configuration not stated) | % | 2 |
| COc1ccc(N(CN2C(=O)CCC2=O)CS(=O)(=O)c2ccc(Cl)cc2)cc1 | % | 14.9 |
| Cc1nn(-c2ccccc2)nc1C(=O)Nc1ccc2[nH]ncc2c1 | % | -15.8 |
| O=C(O)C(CSC(c1ccccc1)(c1ccccc1)c1ccccc1)Nc1ccccc1[N+](=O)[O-] (configuration not stated) | % | 98 |
| NCCCNCCS | % | 18.3 |
| NC(N)=NS(=O)(=O)c1ccc(NC(=O)c2cccn3c(=O)c4ccccc4nc23)cc1 | % | 11.7 |
| CC1=C(/C=C/C(C)=C\c2cc(C)cc(=O)o2)C(C)(C)CCC1 | % | -26.6 |
| COC(=O)CCc1onc(Br)c1CCl | % | 0.35 |
| CCC(CO)NC(=O)/C=C/c1ccccc1Cl (configuration not stated) | % | 2.3 |
| OCCN(Cc1ccccc1)C(c1ccccc1)C(O)c1ccccc1 (configuration not stated) | % | 29.2 |
| O=C(OCc1ccccc1)c1ccccc1-c1c2ccc(=O)cc-2oc2cc(OCc3ccccc3)ccc12 | % | 23.6 |
| N#Cc1ccc(NN=NCCOCCCl)cc1 | % | 34.9 |
| CC(=O)N1CCCCC1C/C(C)=N/O (configuration not stated) | % | -5.6 |
| CC[C@@]12C=CC(=S)N(CCSc3ccccc3)[C@@H]1c1c(n(S(=O)(=O)c3ccc(OC)cc3)c3ccccc13)CC2 | % | -53 |
| COc1onc(C)c1CC(=O)O | % | -32.1 |
| C/C(=N\N(c1ccccc1)c1ccccc1)c1c(O)cc(C)oc1=O | % | -27.4 |
| CCOC(=O)NN(C(=O)OCC)C(=C(c1ccccc1)N1CCOCC1)N(NC(=O)OCC)C(=O)OCC | % | 31.1 |
| C=CCN=C1NC(=O)C(CC(=O)Nc2ccc(C)cc2)S1 (configuration not stated) | % | 17.4 |
| Cc1ccc(-n2nc3c(c(C#N)c2=O)-c2ccccc2C3=O)cc1 | % | -38.5 |
| O=C1Nc2ccccc2C12OCCS2 (configuration not stated) | % | -7.4 |
| COc1cc2c[n+](C)c3c4ccccc4ccc3c2cc1OC | % | 2.75 |
| O=C(NCCCCCCNC(=O)Nc1cccc(C(F)(F)F)c1)Nc1cccc(C(F)(F)F)c1 | % | -19.1 |
| OCC1=CC(c2ccccc2)(c2ccccc2)c2ccccc21 | % | 93.2 |
| c1ccc(COc2ccc(CC3SCCCS3)cc2)cc1 | % | 24.9 |
| Cc1cc2nc3c(C(O)C(O)C(O)CO)nn(-c4ccccc4)c3nc2cc1C (configuration not stated) | % | -15.6 |
| Cc1cccc(NCc2ccccc2)c1 | % | -22.1 |
| CCOC(=O)c1c2c(nc3c1CCCC3)CCCC2 | % | -1.05 |
| [N-]=[N+]=NC1(Cc2ccccc2)C(=O)Nc2ccccc2C1=O (configuration not stated) | % | 4.2 |
| O=C1NC2(CCCCC2)C(=O)N1CCN1C(=O)NC2(CCCCC2)C1=O | % | 8.85 |
| CCCOC(=O)CCCCCC1CCCCC1 | % | -33.1 |
| CCC(Oc1ccc(OC)c2c1C(=O)CCC2)C(=O)O (configuration not stated) | % | 11.4 |
| Cc1nnc(N/N=C/c2ccccc2)n1/N=C\c1ccccc1 | % | 10.2 |

----------
# test-details: NCI Yeast Anticancer Drug Screen. Data for the sgs1 mgt1 strain (AID 161);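 also: 0% = growth of cultures given vehicle only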
# cond: S. cerevisiae sgs1 mgt1 strain, at 50.0 µM, stronger effect = higher value
About 79,000 compounds went through this panel and 15% of them were active in at least one assay; those are over-represented in the sample as a whole.

| compound | growth inhibition [%] |
| --- | --- |
| c1ccc(-c2ccc(-c3nnc(-c4ccc(-c5ccccc5)cc4)o3)cc2)cc1 | 2.7 |
| C=CCCC1(C)OC(C)C(C)O1 (configuration not stated) | -0.95 |
| Cc1cc2c(C)nn(Cc3ccccc3)c2c(C(=O)O)c1C | 1.15 |
| N#Cc1cc([N+](=O)[O-])ccc1NC(=O)C(=O)Nn1c(=S)[nH]c2ccccc2c1=O | -34.5 |
| CC(=O)CC(=O)Nc1cccc(C)c1C | 15.3 |
| O=C(O)c1cc(Cl)c(Cl)s1 | 16.7 |
| CCC1(CC)OC(=O)C(=O)N1N(C)C | -13.9 |
| CCCC(=O)c1c(NOC2OCC(OC(C)=O)C(OC(C)=O)C2OC(C)=O)nc(OC)n(C)c1=O (configuration not stated) | -40.1 |
| COC(=O)C12CC3CC(CC(C(=O)O)(C3)C1)C2 | -4.8 |
| CN(C)CCCNC(=O)N/N=C\c1cccc2ccccc12 | -17.4 |
| COc1cc([C@@H]2OCC3C(c4ccc5c(c4)OCO5)OCC32)cc(OC)c1OC (some centres not stated) | 24.2 |
| O=C(/C=C/C=C/c1ccccc1)CCc1ccccc1 | 24.2 |

----------
# test-details: NCI Yeast Anticancer Drug Screen. Data for the bub3 strain (AID 167)
# cond: S. cerevisiae bub3 mutant strain, at 50.0 µM, stronger effect = higher value
The panel holds about 79,000 compounds, 15% with a hit somewhere; the sample as a whole holds those more often.

| compound | growth inhibition [%] |
| --- | --- |
| COc1cc(/C=C/C(=O)O)cc(OC)c1O | 10.8 |
| CC(C)C(Br)CCC1=CCC(Br)(Br)C1 (centres undefined) | 84.7 |
| COc1ccc(CNc2ccccc2)cc1OC | -9.15 |
| COc1cc2c3c(c1)[nH]c(=S)n3C(=O)C(C)S2 (centres undefined) | -3.85 |
| CC1(C)CC(=O)C2=C(SC3=C(C2)C(=O)CC(C)(C)S3)S1 | -9.85 |
| Nc1cc(C(=O)O)c(O)c(Cl)c1O | 4.5 |
| CCCCCCCCCCCC(=O)O (tested in a mixture with another compound) | -32.6 |
| COC(=O)C(=[N+]=[N-])C(=O)c1ccccc1 | -3.6 |
| CCOC(=O)C1(C(=O)OCC)CC1c1ccccc1 (centres undefined) | -11.7 |
| O=[N+]([O-])c1ccccc1S(=O)(=O)N1CCCc2cc(Cl)ccc21 | 20.6 |
| CN(/N=C\c1ccc([N+](=O)[O-])cc1)C(=O)c1ccccc1 | 19.4 |
| CCC(=O)n1ncc2ccc([N+](=O)[O-])cc21 | -4.45 |
| CCc1nc(Nc2cccc(Cl)c2)c2cnn(-c3ccccc3)c2n1 | 14.7 |
| O=C1CSC(c2ccc(Cl)cc2)N1c1ccc(-n2c(-c3ccccc3)nc3ccccc3c2=O)cc1 (centres undefined) | -0.7 |
| O=Cc1cc2c(cc1-c1cc3c(cc1C=O)OCO3)OCO2 | 13.1 |
| O=C1NCCCC1O (centres undefined) | -6.1 |
| CCCc1ccc(N=Cc2cc(OC)c(OC)c(OC)c2)cc1 | -8 |
| O=C1NC(=O)C2(CCN(Cc3ccccc3)CC2)N1c1ccccc1 | 13.3 |
| N#Cc1c(-c2ccccc2)c(C#N)c(=O)n(N)c1N | 23.1 |
| O=C(Cc1ccccc1)N/N=C(\C1=Nc2ccc([N+](=O)[O-])cc2NC1O)C(O)c1ccc([N+](=O)[O-])cc1 (centres undefined) | 20.6 |
| Cn1c(-c2ccccc2)c/c(=N\NS(C)(=O)=O)c2cc(S(=O)(=O)O)ccc21 | 11.2 |
| O=C(O)Cn1c(=O)n(CC(=O)O)c2ccccc21 | 3.25 |
| Cc1ccc(C(C)C)cc1[N+](=O)[O-] | -13.6 |
| COC(=O)c1cc([N+](=O)[O-])c(Sc2ncnc3nc[nH]c23)c([N+](=O)[O-])c1 | 26.9 |
